Target: Free fatty acid receptor 1 (Homo sapiens)
Sequence (O14842 whole entry): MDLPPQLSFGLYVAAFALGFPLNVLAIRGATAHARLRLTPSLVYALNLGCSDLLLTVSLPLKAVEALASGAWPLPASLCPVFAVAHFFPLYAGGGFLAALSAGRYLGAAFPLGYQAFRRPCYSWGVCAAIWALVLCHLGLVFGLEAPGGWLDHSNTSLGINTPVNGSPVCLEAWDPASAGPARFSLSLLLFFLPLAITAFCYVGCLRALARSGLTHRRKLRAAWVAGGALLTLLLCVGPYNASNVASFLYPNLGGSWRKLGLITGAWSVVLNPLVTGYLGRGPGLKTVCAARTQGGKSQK
Assay: Agonist activity at FFAR1 (unknown origin) assessed as increase in ERK1/2 MAP kinase phosphorylation
PARAMETER: EC50
Field note: include the unit after the figure.

# input Dear colleague, please send me the reported EC50 for CN(CCOc1ccc(CC2SC(=O)NC2=O)cc1)c1ccccn1 (stereo not drawn) when you can.
# output 11.5 µM

# input State its EC50 for this compound: O=C(O)CCc1ccc(NCc2cccc(Oc3ccccc3)c2)cc1
# output 0.316 µM

# input Kindly indicate its recorded EC50. Item: CCc1ccc(CCOc2ccc(CC3SC(=O)NC3=O)cc2)nc1 (stereo not drawn)
# output 813 µM
